target.under.test: AGO2 T357M (Homo sapiens, UniProt Q9UKV8 1-859, T357M;S387D;S824A;S828D;S831D;S834A)
Sequence (Q9UKV8 whole entry T357M/S387D/S824A/S828D/S831D/S834A): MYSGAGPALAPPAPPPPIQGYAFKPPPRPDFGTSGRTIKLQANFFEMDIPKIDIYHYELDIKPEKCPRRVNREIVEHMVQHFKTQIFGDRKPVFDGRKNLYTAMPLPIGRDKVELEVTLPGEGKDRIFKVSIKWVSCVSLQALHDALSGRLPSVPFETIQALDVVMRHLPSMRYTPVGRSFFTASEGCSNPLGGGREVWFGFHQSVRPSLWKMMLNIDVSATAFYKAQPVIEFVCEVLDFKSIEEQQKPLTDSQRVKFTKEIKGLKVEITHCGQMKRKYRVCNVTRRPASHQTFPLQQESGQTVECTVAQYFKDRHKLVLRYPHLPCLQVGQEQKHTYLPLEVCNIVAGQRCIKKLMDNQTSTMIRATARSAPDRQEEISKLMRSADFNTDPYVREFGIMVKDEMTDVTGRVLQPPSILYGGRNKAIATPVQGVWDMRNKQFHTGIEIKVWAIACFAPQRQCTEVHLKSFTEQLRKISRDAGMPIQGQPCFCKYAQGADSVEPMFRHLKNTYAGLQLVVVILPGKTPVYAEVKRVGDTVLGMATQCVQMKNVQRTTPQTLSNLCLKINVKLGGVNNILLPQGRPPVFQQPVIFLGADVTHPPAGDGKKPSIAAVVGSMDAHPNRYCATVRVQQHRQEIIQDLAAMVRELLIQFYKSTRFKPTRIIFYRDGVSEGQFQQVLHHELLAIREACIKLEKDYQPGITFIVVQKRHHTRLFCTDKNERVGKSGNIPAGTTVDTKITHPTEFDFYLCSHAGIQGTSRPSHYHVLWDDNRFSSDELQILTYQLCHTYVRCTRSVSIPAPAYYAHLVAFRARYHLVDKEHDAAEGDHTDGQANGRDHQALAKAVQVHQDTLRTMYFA
experimental.protocol: RNA Bind-n-Seq (nitrocellulose filter binding and sequencing); miR-122 guide loaded in AGO2; 60 min incubation; 30 mM Tris pH 8.0, 100 mM potassium acetate, 2 mM magnesium acetate, 0.5 mM TCEP, 0.005% NP-40, 0.01 mg/ml yeast tRNA; 3 nM AGO2-miR-122, 100 nM RNA library; 60; high values mean tight binding
measurement.parameters: protein: recombinant; tags: His6 (N-terminal, pFastBac HTA)
reported.endpoint: binding signal

[[record]]
binder = "GTGCCCCG (ssRNA, constant regions annealed to DNA blockers; guide miR-122 5' phosphate) RNA 1: GAGUUCUACAGUCCGACGAUCCCAACGUGCCCCGCACCUGGAAUUCUCGGGUGCCAA RNA 2: UGGAGUGUGACAAUGGUGUUUG DNA 1: GATCGTCGGACTGTAGAACTC DNA 2: TTGGCACCCGAGAATTCCA"
reported_endpoint = "binding signal"
result = "0.568 fold enrichment over input"

[[record]]
binder = "ACGTCTTG (ssRNA, constant regions annealed to DNA blockers; guide miR-122 5' phosphate) RNA 1: GAGUUCUACAGUCCGACGAUCCCAACACGUCUUGCACCUGGAAUUCUCGGGUGCCAA RNA 2: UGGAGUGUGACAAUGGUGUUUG DNA 1: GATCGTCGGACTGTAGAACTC DNA 2: TTGGCACCCGAGAATTCCA"
reported_endpoint = "binding signal"
result = "0.501 fold enrichment over input"

[[record]]
binder = "ATACTCTG (ssRNA, constant regions annealed to DNA blockers; guide miR-122 5' phosphate) RNA 1: GAGUUCUACAGUCCGACGAUCCCAACAUACUCUGCACCUGGAAUUCUCGGGUGCCAA RNA 2: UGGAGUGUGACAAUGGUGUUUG DNA 1: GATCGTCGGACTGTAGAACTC DNA 2: TTGGCACCCGAGAATTCCA"
reported_endpoint = "binding signal"
result = "0.504 fold enrichment over input"

[[record]]
binder = "ACATCCCA (ssRNA, constant regions annealed to DNA blockers; guide miR-122 5' phosphate) RNA 1: GAGUUCUACAGUCCGACGAUCCCAACACAUCCCACACCUGGAAUUCUCGGGUGCCAA RNA 2: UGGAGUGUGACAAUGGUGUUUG DNA 1: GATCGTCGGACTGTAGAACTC DNA 2: TTGGCACCCGAGAATTCCA"
reported_endpoint = "binding signal"
result = "0.628 fold enrichment over input"

[[record]]
binder = "ATGCTCCG (ssRNA, constant regions annealed to DNA blockers; guide miR-122 5' phosphate) RNA 1: GAGUUCUACAGUCCGACGAUCCCAACAUGCUCCGCACCUGGAAUUCUCGGGUGCCAA RNA 2: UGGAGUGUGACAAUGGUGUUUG DNA 1: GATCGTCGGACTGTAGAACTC DNA 2: TTGGCACCCGAGAATTCCA"
reported_endpoint = "binding signal"
result = "0.527 fold enrichment over input"


Origin of measurements: paper PMC12529666
